- Test system: CAKI-1
- assay.summary: NCI 60 human tumor cell line screen (SRB)
- Format: cell-based
- test.conditions: CAKI-1 (Renal Cancer); 48 h
property.name: Log10GI50

Input CC(C)C[C@H](NC(=O)[C@H](Cc1ccccc1)NC(=O)[C@H](COC(F)F)NC(=O)CN1CCOCC1)C(=O)[C@@]1(C)CO1 [Example 25] . Output Log10GI50: −6.72

Input C[C@]1(C(=O)[C@H](Cc2ccccc2)NC(=O)[C@H](Cc2ccccc2)NC(=O)[C@H](COC(F)F)NC(=O)CN2CCOCC2)CO1 [Example 29] . Output Log10GI50: −6.56

Input C[C@]1(C(=O)[C@H](Cc2ccccc2)NC(=O)[C@H](COC(F)F)NC(=O)[C@H](COC(F)F)NC(=O)CN2CCOCC2)CO1 [Example 26] . Output Log10GI50: −6.72

Input Cc1ncc(C(=O)N[C@@H](COC(F)F)C(=O)N[C@@H](COC(F)F)C(=O)N[C@@H](Cc2ccccc2)C(=O)[C@@]2(C)CO2)s1 [Example 1] . Output Log10GI50: −6.40

---

- Test system: 786-0
- assay.summary: NCI 60 human tumor cell line screen (SRB)
- Type: cell-based
- test.conditions: 786-0 (Renal Cancer); 48 h
Kindly state Log10TGI50 for each of the entries shown.
Form: value (number only, do not type unit).

Let me check: C[C@]1(C(=O)[C@H](Cc2ccccc2)NC(=O)[C@H](COC(F)F)NC(=O)[C@H](COC(F)F)NC(=O)CN2CCOCC2)CO1 , system 786-0, measured Log10TGI50 is −6.49

Let me check: CC(C)C[C@H](NC(=O)[C@H](Cc1ccccc1)NC(=O)[C@H](COC(F)F)NC(=O)CN1CCOCC1)C(=O)[C@@]1(C)CO1 , system 786-0, measured Log10TGI50 is −6.49

Let me check: C[C@]1(C(=O)[C@H](Cc2ccccc2)NC(=O)[C@H](Cc2ccccc2)NC(=O)[C@H](COC(F)F)NC(=O)CN2CCOCC2)CO1 , system 786-0, measured Log10TGI50 is −5.96

Let me check: Cc1ncc(C(=O)N[C@@H](COC(F)F)C(=O)N[C@@H](COC(F)F)C(=O)N[C@@H](Cc2ccccc2)C(=O)[C@@]2(C)CO2)s1 , system 786-0, measured Log10TGI50 is −4.62

---

Kindly state Log10GI50 for each of the entries shown.
- Test system: SW-620
- assay.summary: NCI 60 human tumor cell line screen (SRB)
- Assay type: cell-based
- test.conditions: SW-620 (Colon Cancer); 48 h
Form: value (number only, do not type unit).

Input C[C@]1(C(=O)[C@H](Cc2ccccc2)NC(=O)[C@H](Cc2ccccc2)NC(=O)[C@H](COC(F)F)NC(=O)CN2CCOCC2)CO1 [Example 29] . Output Log10GI50: −7.40

Input Cc1ncc(C(=O)N[C@@H](COC(F)F)C(=O)N[C@@H](COC(F)F)C(=O)N[C@@H](Cc2ccccc2)C(=O)[C@@]2(C)CO2)s1 [Example 1] . Output Log10GI50: −7.39

Input C[C@]1(C(=O)[C@H](Cc2ccccc2)NC(=O)[C@H](COC(F)F)NC(=O)[C@H](COC(F)F)NC(=O)CN2CCOCC2)CO1 [Example 26] . Output Log10GI50: −7.41

Input CC(C)C[C@H](NC(=O)[C@H](Cc1ccccc1)NC(=O)[C@H](COC(F)F)NC(=O)CN1CCOCC1)C(=O)[C@@]1(C)CO1 [Example 25] . Output Log10GI50: −7.41

---

Kindly state Log10GI50 for each of the entries shown.
- Tested on: NCI-H322M
- assay.summary: NCI 60 human tumor cell line screen (SRB)
- Assay type: cell-based
- test.conditions: NCI-H322M (Non-Small Cell Lung Cancer); 48 h
Form: value (number only, do not type unit).

Input Cc1ncc(C(=O)N[C@@H](COC(F)F)C(=O)N[C@@H](COC(F)F)C(=O)N[C@@H](Cc2ccccc2)C(=O)[C@@]2(C)CO2)s1 . Output Log10GI50: −5.54

Input C[C@]1(C(=O)[C@H](Cc2ccccc2)NC(=O)[C@H](COC(F)F)NC(=O)[C@H](COC(F)F)NC(=O)CN2CCOCC2)CO1 . Output Log10GI50: −7.10

Input C[C@]1(C(=O)[C@H](Cc2ccccc2)NC(=O)[C@H](Cc2ccccc2)NC(=O)[C@H](COC(F)F)NC(=O)CN2CCOCC2)CO1 . Output Log10GI50: −6.27

Input CC(C)C[C@H](NC(=O)[C@H](Cc1ccccc1)NC(=O)[C@H](COC(F)F)NC(=O)CN1CCOCC1)C(=O)[C@@]1(C)CO1 . Output Log10GI50: −7.10

---

- System: SF-539
- assay.summary: NCI 60 human tumor cell line screen (SRB)
- Format: cell-based
- test.conditions: SF-539 (CNS Cancer); 48 h
Kindly state Log10GI50 for each of the entries shown.
Form: value (number only, do not type unit).

Input C[C@]1(C(=O)[C@H](Cc2ccccc2)NC(=O)[C@H](Cc2ccccc2)NC(=O)[C@H](COC(F)F)NC(=O)CN2CCOCC2)CO1 . Output Log10GI50: −7.39

Input Cc1ncc(C(=O)N[C@@H](COC(F)F)C(=O)N[C@@H](COC(F)F)C(=O)N[C@@H](Cc2ccccc2)C(=O)[C@@]2(C)CO2)s1 . Output Log10GI50: −7.15

Input CC(C)C[C@H](NC(=O)[C@H](Cc1ccccc1)NC(=O)[C@H](COC(F)F)NC(=O)CN1CCOCC1)C(=O)[C@@]1(C)CO1 . Output Log10GI50: −7.63

Input C[C@]1(C(=O)[C@H](Cc2ccccc2)NC(=O)[C@H](COC(F)F)NC(=O)[C@H](COC(F)F)NC(=O)CN2CCOCC2)CO1 . Output Log10GI50: −7.63

---

- Tested on: KM12
- assay.summary: NCI 60 human tumor cell line screen (SRB)
- Type: cell-based
- test.conditions: KM12 (Colon Cancer); 48 h
- Description: […] Following drug addition, the plates are incubated for an additional 48 h at 37° C., 5% CO2, 95% air, and 100% relative humidity. […] Bound stain is subsequently solubilised with 10 mM trizma base, and the absorbance is read on an automated plate reader at a wavelength of 515 nm. […] Percentage growth inhibition is calculated as: [(Ti−Tz)/(C−Tz)]×100 for concentrations in which Ti>/=Tz and [(Ti−Tz)/Tz]×100 for concentrations in which Ti<Tz. […]
property.name: Log10GI50
Form: value (number only, do not type unit).

Let me check: C[C@]1(C(=O)[C@H](Cc2ccccc2)NC(=O)[C@H](COC(F)F)NC(=O)[C@H](COC(F)F)NC(=O)CN2CCOCC2)CO1 , system KM12, measured Log10GI50 is −7.72

Let me check: C[C@]1(C(=O)[C@H](Cc2ccccc2)NC(=O)[C@H](Cc2ccccc2)NC(=O)[C@H](COC(F)F)NC(=O)CN2CCOCC2)CO1 , system KM12, measured Log10GI50 is −7.35

Let me check: CC(C)C[C@H](NC(=O)[C@H](Cc1ccccc1)NC(=O)[C@H](COC(F)F)NC(=O)CN1CCOCC1)C(=O)[C@@]1(C)CO1 , system KM12, measured Log10GI50 is −7.72

Let me check: Cc1ncc(C(=O)N[C@@H](COC(F)F)C(=O)N[C@@H](COC(F)F)C(=O)N[C@@H](Cc2ccccc2)C(=O)[C@@]2(C)CO2)s1 , system KM12, measured Log10GI50 is −6.88

---

- Tested on: PC-3
- assay.summary: NCI 60 human tumor cell line screen (SRB)
- Assay type: cell-based
- test.conditions: PC-3 (Prostate Cancer); 48 h
Kindly state Log10LC50 for each of the entries shown.
Form: value (number only, do not type unit).

Input C[C@]1(C(=O)[C@H](Cc2ccccc2)NC(=O)[C@H](COC(F)F)NC(=O)[C@H](COC(F)F)NC(=O)CN2CCOCC2)CO1 . Output Log10LC50: −5.14

Input CC(C)C[C@H](NC(=O)[C@H](Cc1ccccc1)NC(=O)[C@H](COC(F)F)NC(=O)CN1CCOCC1)C(=O)[C@@]1(C)CO1 . Output Log10LC50: −5.14

---

- System: OVCAR-4
- assay.summary: NCI 60 human tumor cell line screen (SRB)
- Format: cell-based
- test.conditions: OVCAR-4 (Ovarian Cancer); 48 h
Kindly state Log10GI50 for each of the entries shown.
Form: value (number only, do not type unit).

Input C[C@]1(C(=O)[C@H](Cc2ccccc2)NC(=O)[C@H](Cc2ccccc2)NC(=O)[C@H](COC(F)F)NC(=O)CN2CCOCC2)CO1 . Output Log10GI50: −6.98

Input CC(C)C[C@H](NC(=O)[C@H](Cc1ccccc1)NC(=O)[C@H](COC(F)F)NC(=O)CN1CCOCC1)C(=O)[C@@]1(C)CO1 . Output Log10GI50: −7.50

Input C[C@]1(C(=O)[C@H](Cc2ccccc2)NC(=O)[C@H](COC(F)F)NC(=O)[C@H](COC(F)F)NC(=O)CN2CCOCC2)CO1 . Output Log10GI50: −7.50

Input Cc1ncc(C(=O)N[C@@H](COC(F)F)C(=O)N[C@@H](COC(F)F)C(=O)N[C@@H](Cc2ccccc2)C(=O)[C@@]2(C)CO2)s1 . Output Log10GI50: −6.29
